All values here come from paper PMC13541613.

MEASUREMENT_TARGET: ZNF721 full-length (Homo sapiens, UniProt Q8TF20-2 1-923)
Sequence (Q8TF20 other isoform, or with tags, fused parts or gaps): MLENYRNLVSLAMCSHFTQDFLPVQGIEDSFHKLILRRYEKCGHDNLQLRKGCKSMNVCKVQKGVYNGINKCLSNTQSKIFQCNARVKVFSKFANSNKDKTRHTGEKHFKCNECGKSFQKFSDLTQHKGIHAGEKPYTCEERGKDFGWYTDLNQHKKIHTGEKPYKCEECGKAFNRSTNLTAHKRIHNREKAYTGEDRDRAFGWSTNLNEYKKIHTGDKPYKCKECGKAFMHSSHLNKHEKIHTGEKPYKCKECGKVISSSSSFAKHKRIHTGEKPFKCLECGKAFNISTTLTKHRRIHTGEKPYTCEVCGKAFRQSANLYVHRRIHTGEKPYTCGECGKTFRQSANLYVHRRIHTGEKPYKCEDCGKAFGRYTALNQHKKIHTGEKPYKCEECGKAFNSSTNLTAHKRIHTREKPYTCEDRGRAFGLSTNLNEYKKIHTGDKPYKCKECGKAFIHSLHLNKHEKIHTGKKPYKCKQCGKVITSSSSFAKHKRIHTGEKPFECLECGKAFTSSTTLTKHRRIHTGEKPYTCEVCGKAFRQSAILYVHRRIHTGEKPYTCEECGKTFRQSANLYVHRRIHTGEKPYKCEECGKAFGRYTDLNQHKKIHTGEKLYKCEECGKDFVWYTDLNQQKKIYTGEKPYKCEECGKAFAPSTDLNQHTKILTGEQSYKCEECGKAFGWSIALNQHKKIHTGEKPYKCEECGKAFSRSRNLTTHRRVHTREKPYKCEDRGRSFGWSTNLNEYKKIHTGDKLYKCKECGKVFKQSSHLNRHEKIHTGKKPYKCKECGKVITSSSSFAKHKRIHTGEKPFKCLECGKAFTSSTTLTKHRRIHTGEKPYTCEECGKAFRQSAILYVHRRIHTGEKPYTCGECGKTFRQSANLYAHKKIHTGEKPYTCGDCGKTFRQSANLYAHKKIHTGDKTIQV
ASSAY_NAME: HT-SELEX; 20 mM HEPES pH 7, 140 mM KCl, 5 mM NaCl, 1 mM K2HPO4, 2 mM MgSO4, 100 uM EGTA, ZnSO4, 0.1% Tween20; room temperature, 1 h; high values mean tight binding
TEST_CONTEXT: protein: ivt; tags: eGFP (N-terminal); dsDNA, one strand shown
Outcome: Criterion met for binding signal of at least 0.2 relative 10-mer count; Criterion not met for anything lower.

[[record]]
sequence_entry = "AAAAAGCAGC"
class_name = "Criterion met"

[[record]]
sequence_entry = "AAAGCTGCAC"
class_name = "Criterion not met"

[[record]]
sequence_entry = "AAACAGCGTT"
class_name = "Criterion met"

[[record]]
sequence_entry = "AGAAAAAAGC"
class_name = "Criterion met"

[[record]]
sequence_entry = "CCATCCCCCC"
class_name = "Criterion not met"

[[record]]
sequence_entry = "ACAGTGTTTC"
class_name = "Criterion not met"

[[record]]
sequence_entry = "CCCCCGACCC"
class_name = "Criterion not met"

[[record]]
sequence_entry = "CACCCGCCCC"
class_name = "Criterion not met"


Inquiry: I'd appreciate it if you could say whether CCCCCCCCCG has binding signal at least equal to 0.2 relative 10-mer count.
Reply text: Criterion not met

Inquiry: I'd appreciate it if you could say whether AAAAAAAGCA has binding signal at least equal to 0.2 relative 10-mer count.
Reply text: Criterion met

Inquiry: I'd appreciate it if you could say whether CACTTCATAC has binding signal at least equal to 0.2 relative 10-mer count.
Reply text: Criterion met

###

MEASUREMENT_TARGET: ZNF721 DBD1 (Homo sapiens, UniProt Q8TF20-2 29-461)
Sequence (Q8TF20 17-449): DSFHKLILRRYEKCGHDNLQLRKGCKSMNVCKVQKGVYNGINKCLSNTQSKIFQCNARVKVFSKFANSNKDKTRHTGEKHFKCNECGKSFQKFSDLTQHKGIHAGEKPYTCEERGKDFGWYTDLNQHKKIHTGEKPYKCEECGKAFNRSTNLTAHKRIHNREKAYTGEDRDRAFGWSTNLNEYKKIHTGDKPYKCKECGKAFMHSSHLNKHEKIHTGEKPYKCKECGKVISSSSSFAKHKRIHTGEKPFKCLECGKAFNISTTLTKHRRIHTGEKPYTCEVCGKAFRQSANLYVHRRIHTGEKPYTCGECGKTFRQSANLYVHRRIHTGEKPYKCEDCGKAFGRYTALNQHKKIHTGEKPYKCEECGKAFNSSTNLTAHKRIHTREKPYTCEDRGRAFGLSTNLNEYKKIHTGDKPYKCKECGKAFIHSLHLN
ASSAY_NAME: HT-SELEX; 20 mM HEPES pH 7, 140 mM KCl, 5 mM NaCl, 1 mM K2HPO4, 2 mM MgSO4, 100 uM EGTA, ZnSO4, 0.1% Tween20; room temperature, 1 h; high values mean tight binding
TEST_CONTEXT: protein: ivt; tags: eGFP (N-terminal); dsDNA, one strand shown
Outcome: true (1) for binding signal of at least 0.007 relative 10-mer count; false (0) for anything lower.

[[record]]
sequence_entry = "CCCCCAACCC"
class_name = "true (1)"

[[record]]
sequence_entry = "AGGTATGAAG"
class_name = "true (1)"

[[record]]
sequence_entry = "AACCCCCACC"
class_name = "false (0)"

[[record]]
sequence_entry = "CCACGCCCCA"
class_name = "false (0)"

[[record]]
sequence_entry = "CACCCACCCC"
class_name = "true (1)"

[[record]]
sequence_entry = "CCCCACCCAA"
class_name = "false (0)"

[[record]]
sequence_entry = "CCACCCACCA"
class_name = "true (1)"

[[record]]
sequence_entry = "GTGGGGGGGA"
class_name = "false (0)"


Inquiry: I'd appreciate it if you could say whether CCACCACGCC has binding signal at least equal to 0.007 relative 10-mer count.
Reply text: false (0)

Inquiry: I'd appreciate it if you could say whether AACAGCATGA has binding signal at least equal to 0.007 relative 10-mer count.
Reply text: false (0)

Inquiry: I'd appreciate it if you could say whether AAAAAAGAGT has binding signal at least equal to 0.007 relative 10-mer count.
Reply text: false (0)

Inquiry: I'd appreciate it if you could say whether ACACCACCCC has binding signal at least equal to 0.007 relative 10-mer count.
Reply text: false (0)

Inquiry: I'd appreciate it if you could say whether CCAAAAAAAG has binding signal at least equal to 0.007 relative 10-mer count.
Reply text: true (1)

###

MEASUREMENT_TARGET: ZNF721 full-length (Homo sapiens, UniProt Q8TF20-2 1-923)
ASSAY_NAME: HT-SELEX; 20 mM HEPES pH 7, 140 mM KCl, 5 mM NaCl, 1 mM K2HPO4, 2 mM MgSO4, 100 uM EGTA, ZnSO4, 0.1% Tween20; room temperature, 1 h; high values mean tight binding
TEST_CONTEXT: protein: ivt; tags: eGFP (N-terminal); dsDNA, one strand shown
ASSAY_ENDPOINT: binding signal (relative 10-mer count)
Give bare numbers, in relative 10-mer count.

Consider the reported binding signal for these sequences:
[[record]]
sequence_entry = "ACCCCCCGCC"
display_unit = "relative 10-mer count"
readout_value = 0.137

[[record]]
sequence_entry = "TCCCCCACCA"
display_unit = "relative 10-mer count"
readout_value = 0.114

[[record]]
sequence_entry = "CCCCACCCCG"
display_unit = "relative 10-mer count"
readout_value = 0.186

[[record]]
sequence_entry = "CCCCCCACCG"
display_unit = "relative 10-mer count"
readout_value = 0.17

[[record]]
sequence_entry = "ATGGGGTGGG"
display_unit = "relative 10-mer count"
readout_value = 0.125


For each of the sequences below, state binding signal.
1. AGCAGTGTTG
2. CGCCTCCCCC

Reply text:
[0.13, 0.126]

###

MEASUREMENT_TARGET: ZNF721 full-length (Homo sapiens, UniProt Q8TF20-2 1-923)
ASSAY_NAME: HT-SELEX; 20 mM HEPES pH 7, 140 mM KCl, 5 mM NaCl, 1 mM K2HPO4, 2 mM MgSO4, 100 uM EGTA, ZnSO4, 0.1% Tween20; room temperature, 1 h; high values mean tight binding
TEST_CONTEXT: protein: ivt; tags: eGFP (N-terminal); dsDNA, one strand shown
ASSAY_ENDPOINT: binding signal (relative 10-mer count)
Numbers only, in relative 10-mer count.

[[record]]
sequence_entry = "CAAAGCAGTG"
measurement_target = "ZNF721 full-length (Homo sapiens, UniProt Q8TF20-2 1-923)"
display_unit = "relative 10-mer count"
readout_value = 0.119


For each of the sequences below, state binding signal.
1. CACCCCCCCC
2. AGGCAACACT
3. AAAAGCGTAC

Reply text:
0.217
0.174
0.118

For each of the sequences below, state binding signal.
1. CCACACACCC
2. CGTCCCCACC
3. CCCCCCCCGC
4. AGCTATACCA
5. CCCCCCCCAC

Reply text:
1. 0.105
2. 0.115
3. 0.151
4. 0.14
5. 0.257

###

MEASUREMENT_TARGET: ZNF721 DBD1 (Homo sapiens, UniProt Q8TF20-2 29-461)
ASSAY_NAME: HT-SELEX; 20 mM HEPES pH 7, 140 mM KCl, 5 mM NaCl, 1 mM K2HPO4, 2 mM MgSO4, 100 uM EGTA, ZnSO4, 0.1% Tween20; room temperature, 1 h; high values mean tight binding
TEST_CONTEXT: protein: ivt; tags: eGFP (N-terminal); dsDNA, one strand shown
Outcome: MET for binding signal of at least 0.009 relative 10-mer count; NOT MET for anything lower.

The following sequences have reported results that may help.
[[record]]
sequence_entry = "CCCCCCTCAC"
class_name = "NOT MET"

[[record]]
sequence_entry = "CCCCCACCCC"
class_name = "MET"

[[record]]
sequence_entry = "CCCTCACCCC"
class_name = "NOT MET"


Inquiry: I'd appreciate it if you could say whether ACCACCCCGC has binding signal at least equal to 0.009 relative 10-mer count.
Reply text: NOT MET

Inquiry: I'd appreciate it if you could say whether CTAAAAAAAA has binding signal at least equal to 0.009 relative 10-mer count.
Reply text: MET

Inquiry: I'd appreciate it if you could say whether AGCAGTACCA has binding signal at least equal to 0.009 relative 10-mer count.
Reply text: MET

Inquiry: I'd appreciate it if you could say whether AAAAAAGCTA has binding signal at least equal to 0.009 relative 10-mer count.
Reply text: MET

###

MEASUREMENT_TARGET: ZNF721 DBD1 (Homo sapiens, UniProt Q8TF20-2 29-461)
ASSAY_NAME: HT-SELEX; 20 mM HEPES pH 7, 140 mM KCl, 5 mM NaCl, 1 mM K2HPO4, 2 mM MgSO4, 100 uM EGTA, ZnSO4, 0.1% Tween20; room temperature, 1 h; high values mean tight binding
TEST_CONTEXT: protein: ivt; tags: eGFP (N-terminal); dsDNA, one strand shown
ASSAY_ENDPOINT: log10 binding signal (log10 of the value in relative 10-mer count)
Note the log scale: values are log10 of binding signal expressed in relative 10-mer count.

Consider the reported log10 binding signal for these sequences:
[[record]]
sequence_entry = "CAAAAAAGCA"
readout_value = -2.14

[[record]]
sequence_entry = "AGCATCTCCA"
readout_value = -1.89

[[record]]
sequence_entry = "CCCCACCACA"
readout_value = -2.30

[[record]]
sequence_entry = "CCCCCCACCG"
readout_value = -2.22

[[record]]
sequence_entry = "CCACCCCTCC"
readout_value = -1.97

[[record]]
sequence_entry = "CCACCCGCCC"
readout_value = -2.04

[[record]]
sequence_entry = "ACCTCCCCCC"
readout_value = -2.24

[[record]]
sequence_entry = "CCCCCCCCCA"
readout_value = -2.32

[[record]]
sequence_entry = "CCACTCCCCC"
readout_value = -2.36

[[record]]
sequence_entry = "GCCCCCTCCC"
readout_value = -2.20


For each of the sequences below, state log10 binding signal.
1. AAAAAAAAGC
2. CCCCCGCCAC
3. ACCCACCCCT

Reply text:
1. -0.95
2. -2.17
3. -2.27

For each of the sequences below, state log10 binding signal.
1. CAAAACAGCA
2. CCACAAAAAA
3. GGGGTGGGGA
4. CCTCCCCGCC
5. CCCGTCCCCC

Reply text:
1: -2.92; 2: -2.21; 3: -2.03; 4: -2.16; 5: -2.11
